Target: MCH receptor (Homo sapiens, UniProt Q99705)
Test: High throughput functional screening FLIPR/FDSS6000 (intracellular Ca2+ evoked by MCH)
Format: cell-based
Conditions: FLIPR/FDSS, antagonist activity vs 50 nM MCH; class by percent of control at 10^−7 M or IC50; table after the classification; read-out: class
pIC50: −log10 of the molar value. Where a name gives a salt, the structure may show the parent alone.
pIC50 reference

Completed entries (count: 2):
[
  {
    "compound": "Cc1cc(N[C@H]2CC[C@@H](NC(=O)c3ccc(C(F)(F)F)nc3)CC2)nc2ccccc12 [Example 3186, hydrochloride]",
    "pIC50": "6.70 to 7.30"
  },
  {
    "compound": "CN(C)c1nc(N[C@H]2CC[C@@H](NC(=O)c3cccc([N+](=O)[O-])c3)CC2)nc2c1CCCC2 [Example 3112, hydrochloride]",
    "pIC50": "> 7.30"
  }
]

QUERY: Requested read-out: pIC50. Entry: Cc1cc(N[C@H]2CC[C@@H](NC(=O)c3ccc(N(C)C)nc3)CC2)nc2ccccc12 [Example 3176, dihydrochloride]
RESULT: 6.70 to 7.30
